System: CAL-85-1 (Breast Carcinoma)
Assay Method Text: Bliss excess, mean over the matrix (fraction); higher = more synergy;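 further: after 72 h of two-drug dosing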
Assay Metric: Bliss excess
// response body must contain only the number

{"Compound": "COc1nnc2ccc(N3CCC(c4ccc(OCCN5CCN(C)C(=O)[C@H]5C)cc4)CC3)nn12 [AZD5153] + CC1(C)CCC(CN2CCN(c3ccc(C(=O)NS(=O)(=O)c4ccc(NCC5CCOCC5)c([N+](=O)[O-])c4)c(Oc4cnc5[nH]ccc5c4)c3)CC2)=C(c2ccc(Cl)cc2)C1 [Venetoclax] (first compound max 1 µM, 7x7, partner max 1 µM)", "Bliss excess": -0.0582}
{"Compound": "C=CCn1c(=O)c2cnc(Nc3ccc(N4CCN(C)CC4)cc3)nc2n1-c1cccc(C(C)(C)O)n1 [AZD1775] + CCc1c2c(nc3ccc(O)cc13)-c1cc3c(c(=O)n1C2)COC(=O)[C@]3(O)CC [SN-38] (first compound max 1 µM, partner max 0.3 µM)", "Bliss excess": -0.0337}
{"Compound": "Cc1c2c(nn1C)CSCc1cc(n(C)n1)CSc1cc(c3ccccc3c1)OCCCc1c(C(=O)O)n(C)c3c-2c(Cl)ccc13 [AZD5991] + CN(C)CCCOc1ccc(-c2ccc3ncc4c(c3c2)n(C2CCOCC2)c(=O)n4C)cn1 [AZD0156] (first compound max 1 µM, 7x7, partner max 1 µM)", "Bliss excess": -0.0542}

API: the following record is the query input.
Request: # Bliss excess lookup, item NC1(C(=O)N[C@@H](CCO)c2ccc(Cl)cc2)CCN(c2ncnc3[nH]ccc23)CC1 [Capivasertib] + C[C@@H]1COCCN1C2=NC(=NC(=C2)C3(CC3)[S@](=N)(=O)C)C4=C5C=CNC5=NC=C4 [AZD6738] (first compound max 10 µM, 7x7, partner max 10 µM)
Result: -0.0062

====

Test system: NCI-H2009 (Lung Adenocarcinoma)
Assay Method Text: Bliss excess, mean over the matrix (fraction); higher = more synergy
Assay Metric: Bliss excess
// response body must contain only the number

{"Compound": "CC1(C)CCC(CN2CCN(c3ccc(C(=O)NS(=O)(=O)c4ccc(NCC5CCOCC5)c([N+](=O)[O-])c4)c(Oc4cnc5[nH]ccc5c4)c3)CC2)=C(c2ccc(Cl)cc2)C1 [Venetoclax] + CS(=O)(=O)CCNCc1ccc(-c2ccc3ncnc(Nc4ccc(OCc5cccc(F)c5)c(Cl)c4)c3c2)o1 [Lapatinib] (first compound max 1 µM, 7x7, partner max 10 µM)", "Assay Metric": "Bliss excess", "Measured": -0.0358}
{"Compound": "Cc1cc2ncnn2cc1Nc1ncc2c(n1)n(C1CCOCC1)c(=O)n2C [AZD7648] + C=CCn1c(=O)c2cnc(Nc3ccc(N4CCN(C)CC4)cc3)nc2n1-c1cccc(C(C)(C)O)n1 [AZD1775] (first compound max 10 µM, partner max 1 µM)", "Assay Metric": "Bliss excess", "Measured": -0.0271}
{"Compound": "NC1(C(=O)N[C@@H](CCO)c2ccc(Cl)cc2)CCN(c2ncnc3[nH]ccc23)CC1 [Capivasertib] + CC(=O)c1c(C)c2cnc(Nc3ccc(N4CCNCC4)cn3)nc2n(C2CCCC2)c1=O [Palbociclib] (first compound max 10 µM, 7x7, partner max 10 µM)", "Assay Metric": "Bliss excess", "Measured": -0.0054}
{"Compound": "Cc1c2c(nn1C)CSCc1cc(n(C)n1)CSc1cc(c3ccccc3c1)OCCCc1c(C(=O)O)n(C)c3c-2c(Cl)ccc13 [AZD5991] + Cc1cc2ncnn2cc1Nc1ncc2c(n1)n(C1CCOCC1)c(=O)n2C [AZD7648] (first compound max 1 µM, 7x7, partner max 10 µM)", "Assay Metric": "Bliss excess", "Measured": -0.0188}
{"Compound": "CCN(CCO)CCCOc1ccc2c(Nc3cc(CC(=O)Nc4cccc(F)c4)[nH]n3)ncnc2c1 [AZD2811] + O=C(c1cc(Cc2n[nH]c(=O)c3ccccc23)ccc1F)N1CCN(C(=O)C2CC2)CC1 [Olaparib] (first compound max 1 µM, 7x7, partner max 10 µM)", "Assay Metric": "Bliss excess", "Measured": 0.0113}

Request: # Bliss excess lookup, item COc1nnc2ccc(N3CCC(c4ccc(OCCN5CCN(C)C(=O)[C@H]5C)cc4)CC3)nn12 [AZD5153] + C[C@@H]1COCCN1C2=NC(=NC(=C2)C3(CC3)[S@](=N)(=O)C)C4=C5C=CNC5=NC=C4 [AZD6738] (first compound max 1 µM, 7x7, partner max 10 µM)
Result: 0.081

Request: # Bliss excess lookup, item Cc1c2c(nn1C)CSCc1cc(n(C)n1)CSc1cc(c3ccccc3c1)OCCCc1c(C(=O)O)n(C)c3c-2c(Cl)ccc13 [AZD5991] + CN(C)CCCOc1ccc(-c2ccc3ncc4c(c3c2)n(C2CCOCC2)c(=O)n4C)cn1 [AZD0156] (first compound max 1 µM, 7x7, partner max 1 µM)
Result: -0.0204

Request: # Bliss excess lookup, item Cc1nc(Nc2ncc(C(=O)Nc3c(C)cccc3Cl)s2)cc(N2CCN(CCO)CC2)n1 [Dasatinib] + CC(=O)Nc1cccc(-n2c(=O)n(C3CC3)c(=O)c3c(Nc4ccc(I)cc4F)n(C)c(=O)c(C)c32)c1 [Trametinib] (first compound max 2 µM, 7x7, partner max 1 µM)
Result: 0.0589

Request: # Bliss excess lookup, item CS(=O)(=O)CCNCc1ccc(-c2ccc3ncnc(Nc4ccc(OCc5cccc(F)c5)c(Cl)c4)c3c2)o1 [Lapatinib] + NC1(c2ccc(-c3nc4ccn5c(=O)[nH]nc5c4cc3-c3ccccc3)cc2)CCC1 [MK-2206] (first compound max 10 µM, 7x7, partner max 10 µM)
Result: -0.0246

Request: # Bliss excess lookup, item O=C(c1cc(Cc2n[nH]c(=O)c3ccccc23)ccc1F)N1CCN(C(=O)C2CC2)CC1 [Olaparib] + CN(CC[C@H](CSC1=CC=CC=C1)NC2=C(C=C(C=C2)S(=O)(=O)NC(=O)C3=CC=C(C=C3)N4CCC(CC4)[C@H](C5=CC=CC=C5C6=CC=C(C=C6)Cl)O)S(=O)(=O)C(F)(F)F)CCO [AZD4320] (first compound max 10 µM, 7x7, partner max 1 µM)
Result: -0.0603
